recordedConditions: 2 Days at 37°C, 1.0 mg/mL in water
measurementLabel: Forced degradation Δ Purity (%)
A number alone suffices; assume %.

Some solved entries appear below for comparison.
C=C1NC(=O)[C@H](Cc2c[nH]c3ccccc23)NC(=O)[C@H](NC(=O)[C@H](CCCCN)NC(=O)[C@@H](N)[C@@H](C)CC)CSC[C@@H](C(=O)N[C@H]2C(=O)N3CCC[C@H]3C(=O)NCC(=O)N[C@H](C(=O)N[C@@H](C)C(=O)N[C@@H](CC(N)=O)C(=O)N/C(=C\C)C(=O)NCC(=O)N[C@@H]3CSC[C@@H]4NC(=O)[C@H](Cc5ccc(O)cc5)NC(=O)[C@@H](CS/C=C\NC4=O)NC(=O)[C@H](CC(N)=O)NC(=O)[C@H](Cc4ccccc4)NC3=O)CS[C@H]2C)NC(=O)[C@H](CC(C)C)NC1=O ... -1.15
C=C1NC(=O)[C@H](Cc2c[nH]c3ccccc23)NC(=O)[C@H](NC(=O)[C@H](CCCCN)NC(=O)[C@@H](N)CC(C)C)CSC[C@@H](C(=O)N[C@H]2C(=O)N3CCC[C@H]3C(=O)NCC(=O)N[C@H](C(=O)N[C@@H](C)C(=O)N[C@@H](CC(N)=O)C(=O)N/C(=C\C)C(=O)NCC(=O)N[C@@H]3CSC[C@@H]4NC(=O)[C@H](Cc5ccc(O)cc5)NC(=O)[C@@H](CS/C=C\NC4=O)NC(=O)[C@H](CC(N)=O)NC(=O)[C@H](Cc4ccccc4)NC3=O)CS[C@H]2C)NC(=O)[C@H](CC(C)C)NC1=O ... -0.21
C=C1NC(=O)[C@H](Cc2c[nH]c3ccccc23)NC(=O)[C@H](NC(=O)[C@H](CCCCN)NC(=O)[C@@H](N)[C@@H](C)CC)CSC[C@@H](C(=O)N[C@H]2C(=O)N3CCC[C@H]3C(=O)NCC(=O)N[C@H](C(=O)N[C@@H](C)C(=O)N[C@@H](CC(=O)O)C(=O)N/C(=C\C)C(=O)NCC(=O)N[C@@H]3CSC[C@@H]4NC(=O)[C@H](Cc5ccc(O)cc5)NC(=O)[C@@H](CS/C=C\NC4=O)NC(=O)[C@H](CC(N)=O)NC(=O)[C@H](Cc4ccccc4)NC3=O)CS[C@H]2C)NC(=O)[C@H](CC(C)C)NC1=O ... -0.97

Now for a further molecule.
// Forced degradation Δ Purity lookup, key: C=C1NC(=O)[C@H](Cc2c[nH]c3ccccc23)NC(=O)[C@H](NC(=O)[C@H](CCCCN)NC(=O)[C@@H](N)CC(C)C)CSC[C@@H](C(=O)N[C@H]2C(=O)N3CCC[C@H]3C(=O)NCC(=O)N[C@H](C(=O)N[C@@H](C)C(=O)N[C@@H](C)C(=O)N/C(=C\C)C(=O)NCC(=O)N[C@@H]3CSC[C@@H]4NC(=O)[C@H](Cc5ccc(O)cc5)NC(=O)[C@@H](CS/C=C\NC4=O)NC(=O)[C@H](CC(N)=O)NC(=O)[C@H](Cc4ccccc4)NC3=O)CS[C@H]2C)NC(=O)[C@H](CC(C)C)NC1=O
-0.06

====

recordedConditions: 7 Days at +50°C, 1.0 mg/mL in water
Entries annotated with measured Forced degradation Δ Purity
Field note: include the unit after the figure.

Some solved entries appear below for comparison.
C=C1NC(=O)[C@H](Cc2c[nH]c3ccccc23)NC(=O)[C@H](NC(=O)[C@H](CCCCN)NC(=O)[C@@H](N)CC(C)C)CSC[C@@H](C(=O)N[C@H]2C(=O)N3CCC[C@H]3C(=O)NCC(=O)N[C@H](C(=O)N[C@@H](C)C(=O)N[C@@H](CC(=O)O)C(=O)N/C(=C\C)C(=O)NCC(=O)N[C@@H]3CSC[C@@H]4NC(=O)[C@H](Cc5ccc(O)cc5)NC(=O)[C@@H](CS/C=C\NC4=O)NC(=O)[C@H](CC(N)=O)NC(=O)[C@H](Cc4ccccc4)NC3=O)CS[C@H]2C)NC(=O)[C@H](CC(C)C)NC1=O [OG705] ... -3.22%
C=C1NC(=O)[C@H](Cc2c[nH]c3ccccc23)NC(=O)[C@H](NC(=O)[C@H](CCCCN)NC(=O)[C@@H](N)CC(C)C)CSC[C@@H](C(=O)N[C@H]2C(=O)N3CCC[C@H]3C(=O)NCC(=O)N[C@H](C(=O)N[C@@H](C)C(=O)N[C@@H](C)C(=O)N/C(=C\C)C(=O)NCC(=O)N[C@@H]3CSC[C@@H]4NC(=O)[C@H](Cc5ccc(O)cc5)NC(=O)[C@@H](CS/C=C\NC4=O)NC(=O)[C@H](CC(N)=O)NC(=O)[C@H](Cc4ccccc4)NC3=O)CS[C@H]2C)NC(=O)[C@H](CC(C)C)NC1=O [OG713] ... -6.98%
C=C1NC(=O)[C@H](Cc2c[nH]c3ccccc23)NC(=O)[C@H](NC(=O)[C@H](CCCCN)NC(=O)[C@@H](N)[C@@H](C)CC)CSC[C@@H](C(=O)N[C@H]2C(=O)N3CCC[C@H]3C(=O)NCC(=O)N[C@H](C(=O)N[C@@H](C)C(=O)N[C@@H](CC(=O)O)C(=O)N/C(=C\C)C(=O)NCC(=O)N[C@@H]3CSC[C@@H]4NC(=O)[C@H](Cc5ccc(O)cc5)NC(=O)[C@@H](CS/C=C\NC4=O)NC(=O)[C@H](CC(N)=O)NC(=O)[C@H](Cc4ccccc4)NC3=O)CS[C@H]2C)NC(=O)[C@H](CC(C)C)NC1=O [OG703] ... -4.79%

// Forced degradation Δ Purity lookup, key: C=C1NC(=O)[C@H](Cc2c[nH]c3ccccc23)NC(=O)[C@H](NC(=O)[C@H](CCCCN)NC(=O)[C@@H](N)C(C)C)CSC[C@@H](C(=O)N[C@H]2C(=O)N3CCC[C@H]3C(=O)NCC(=O)N[C@H](C(=O)N[C@@H](C)C(=O)N[C@@H](CC(N)=O)C(=O)N/C(=C\C)C(=O)NCC(=O)N[C@@H]3CSC[C@@H]4NC(=O)[C@H](Cc5ccc(O)cc5)NC(=O)[C@@H](CS/C=C\NC4=O)NC(=O)[C@H](CC(N)=O)NC(=O)[C@H](Cc4ccccc4)NC3=O)CS[C@H]2C)NC(=O)[C@H](CC(C)C)NC1=O [OG716]
-19.77%

Another compound to look at: C=C1NC(=O)[C@H](Cc2c[nH]c3ccccc23)NC(=O)[C@H](NC(=O)[C@H](CCCCN)NC(=O)[C@@H](N)[C@@H](C)CC)CSC[C@@H](C(=O)N[C@H]2C(=O)N3CCC[C@H]3C(=O)NCC(=O)N[C@H](C(=O)N[C@@H](C)C(=O)N[C@@H](CC(N)=O)C(=O)N/C(=C\C)C(=O)NCC(=O)N[C@@H]3CSC[C@@H]4NC(=O)[C@H](Cc5ccc(O)cc5)NC(=O)[C@@H](CS/C=C\NC4=O)NC(=O)[C@H](CC(N)=O)NC(=O)[C@H](Cc4ccccc4)NC3=O)CS[C@H]2C)NC(=O)[C@H](CC(C)C)NC1=O [OG706]
-21.46%

====

System: C. difficile
protocolDetails: microbe, parasite or virus in culture
Type: cell-based, Clostridium difficile
Entries annotated with measured MIC 90
A number alone suffices; assume µg/mL.

C=C1NC(=O)[C@H](Cc2c[nH]c3ccccc23)NC(=O)[C@H](NC(=O)[C@H](CCCCN)NC(=O)[C@@H](N)C(C)C)CSC[C@@H](C(=O)N[C@H]2C(=O)N3CCC[C@H]3C(=O)NCC(=O)N[C@H](C(=O)N[C@@H](C)C(=O)N[C@@H](CC(N)=O)C(=O)N/C(=C\C)C(=O)NCC(=O)N[C@@H]3CSC[C@@H]4NC(=O)[C@H](Cc5ccc(O)cc5)NC(=O)[C@@H](CS/C=C\NC4=O)NC(=O)[C@H](CC(N)=O)NC(=O)[C@H](Cc4ccccc4)NC3=O)CS[C@H]2C)NC(=O)[C@H](CC(C)C)NC1=O ... 0.5

// MIC 90 lookup, key: C=C1NC(=O)[C@H](Cc2c[nH]c3ccccc23)NC(=O)[C@H](NC(=O)[C@H](CCCCN)NC(=O)[C@@H](N)CC(C)C)CSC[C@@H](C(=O)N[C@H]2C(=O)N3CCC[C@H]3C(=O)NCC(=O)N[C@H](C(=O)N[C@@H](C)C(=O)N[C@@H](C)C(=O)N/C(=C\C)C(=O)NCC(=O)N[C@@H]3CSC[C@@H]4NC(=O)[C@H](Cc5ccc(O)cc5)NC(=O)[C@@H](CS/C=C\NC4=O)NC(=O)[C@H](CC(N)=O)NC(=O)[C@H](Cc4ccccc4)NC3=O)CS[C@H]2C)NC(=O)[C@H](CC(C)C)NC1=O
0.5

====

Entries annotated with measured Forced degradation Δ Purity
recordedConditions: 2 Days at 37°C, 1.0 mg/mL in water

C=C1NC(=O)[C@H](Cc2c[nH]c3ccccc23)NC(=O)[C@H](NC(=O)[C@H](CCCCN)NC(=O)[C@@H](N)C(C)C)CSC[C@@H](C(=O)N[C@H]2C(=O)N3CCC[C@H]3C(=O)NCC(=O)N[C@H](C(=O)N[C@@H](C)C(=O)N[C@@H](CC(N)=O)C(=O)N/C(=C\C)C(=O)NCC(=O)N[C@@H]3CSC[C@@H]4NC(=O)[C@H](Cc5ccc(O)cc5)NC(=O)[C@@H](CS/C=C\NC4=O)NC(=O)[C@H](CC(N)=O)NC(=O)[C@H](Cc4ccccc4)NC3=O)CS[C@H]2C)NC(=O)[C@H](CC(C)C)NC1=O [OG716] ... -0.31%
C=C1NC(=O)[C@H](Cc2c[nH]c3ccccc23)NC(=O)[C@H](NC(=O)[C@H](CCCCN)NC(=O)[C@@H](N)[C@@H](C)CC)CSC[C@@H](C(=O)N[C@H]2C(=O)N3CCC[C@H]3C(=O)NCC(=O)N[C@H](C(=O)N[C@@H](C)C(=O)N[C@@H](CC(N)=O)C(=O)N/C(=C\C)C(=O)NCC(=O)N[C@@H]3CSC[C@@H]4NC(=O)[C@H](Cc5ccccc5)NC(=O)[C@@H](CS/C=C\NC4=O)NC(=O)[C@H](CC(N)=O)NC(=O)[C@H](Cc4ccccc4)NC3=O)CS[C@H]2C)NC(=O)[C@H](CC(C)C)NC1=O [OG718] ... -2.07%
C=C1NC(=O)[C@H](Cc2c[nH]c3ccccc23)NC(=O)[C@H](NC(=O)[C@H](CCCCN)NC(=O)[C@@H](N)[C@@H](C)CC)CSC[C@@H](C(=O)N[C@H]2C(=O)N3CCC[C@H]3C(=O)NCC(=O)N[C@H](C(=O)N[C@@H](C)C(=O)N[C@@H](C)C(=O)N/C(=C\C)C(=O)NCC(=O)N[C@@H]3CSC[C@@H]4NC(=O)[C@H](Cc5ccc(O)cc5)NC(=O)[C@@H](CS/C=C\NC4=O)NC(=O)[C@H](CC(N)=O)NC(=O)[C@H](Cc4ccccc4)NC3=O)CS[C@H]2C)NC(=O)[C@H](CC(C)C)NC1=O [OG711] ... -1.24%

Now for a further compound.
// Forced degradation Δ Purity lookup, key: C=C1NC(=O)[C@H](Cc2c[nH]c3ccccc23)NC(=O)[C@H](NC(=O)[C@H](CCCCN)NC(=O)[C@@H](N)CC(C)C)CSC[C@@H](C(=O)N[C@H]2C(=O)N3CCC[C@H]3C(=O)NCC(=O)N[C@H](C(=O)N[C@@H](C)C(=O)N[C@@H](CC(=O)O)C(=O)N/C(=C\C)C(=O)NCC(=O)N[C@@H]3CSC[C@@H]4NC(=O)[C@H](Cc5ccc(O)cc5)NC(=O)[C@@H](CS/C=C\NC4=O)NC(=O)[C@H](CC(N)=O)NC(=O)[C@H](Cc4ccccc4)NC3=O)CS[C@H]2C)NC(=O)[C@H](CC(C)C)NC1=O [OG705]
-0.29%
